The reported measurements were obtained from the supplement of paper PMC9170038.

Tested on: MS2 coat protein
Assay: apparent KD of MS2 coat protein; designed switch direction (-1 OFF switch, 1 ON switch): -1; higher = weaker reporter binding
Conditions: input ligand: none

{"sequence": "UGUGUGUGAGGAUAUACAAUGCGCGCGCGAAAGUGUGUGUUACAUGAGGAUCACCCAUGUAGAAGGCGCGCGCG [-31, -27.8 kcal A 24%, 6,6bis] (Eterna round: R97, puzzle: Exclusion 2)", "reading-unit": "nM", "apparent KD of MS2 coat protein": 17}
{"sequence": "AGCUGUGGCCGAGGAUAUUCAGCCUUAAAUACCGACGUAUAGUCGGACAUGAGGAUCACCCAUGUGGAGAAGGCGGUCUCAGCA [Eli eng2 - 046] (Eterna round: R96, puzzle: Exclusion NG 2)", "reading-unit": "nM", "apparent KD of MS2 coat protein": 48.4}
{"sequence": "AUGUGAUUGGCUCUGAGACAUGAGGAUCACCCAUGUGGAGCGCAGGAUAUCCGAACCGUGAAGGCGGAGAAGGGCGUCGUGGUA [Zasorequer] (Eterna round: R96, puzzle: Exclusion NG 3)", "reading-unit": "nM", "apparent KD of MS2 coat protein": 26}
{"sequence": "GCAUUUGUAGGAUAUACAUGAGGAUCACCCAUGUCGAGACGUGCAAGGCUUCCCAACUGUAGAAGGACGCGGCC [Eternabot (L1) Solution 61] (Eterna round: R97, puzzle: Exclusion 3)", "reading-unit": "nM", "apparent KD of MS2 coat protein": 27.4}
{"sequence": "UUAACAUGCUGGUGAUCAUACAUGAGGAUCACCCAUGUAACAAGCUUUUUGUUCGUCUUAUAAUUUAAGAUCACCAG [Stov1/7-B1] (Eterna round: R97, puzzle: Sensor, turn-off variant 1)", "reading-unit": "nM", "apparent KD of MS2 coat protein": 20.3}
{"sequence": "UCUCCUCCCGUAAGGAUAUUCAUGCGUACCACGCGGAAGAAGGUACAUGAGGAUCACCCAUGUAAUUAACACCG [BmEX4 B.9] (Eterna round: R97, puzzle: Brourd's mod of Exclusion 4)", "reading-unit": "nM", "apparent KD of MS2 coat protein": 24.3}
{"sequence": "UGUUGUUCAGGAUAUGAAGUAUAUUACAUGAGGAUCACCCAUGUAGAUCCUGAAUAUACAUCAGAAGGGAAUAUUU [JR_Ex5_Sub057] (Eterna round: R97, puzzle: Exclusion 5)", "reading-unit": "nM", "apparent KD of MS2 coat protein": 21.1}
{"sequence": "ACGAUGACAGAAAGAAGUCAAAAGACAUGAGGAUCACCCAUGUAGGAUAUGGCUACGAAAAGUAGUCAGAAGGACUUGUCAUCA [Omei Exc(NG) 3 Av2] (Eterna round: R96, puzzle: Exclusion NG 3)", "reading-unit": "nM", "apparent KD of MS2 coat protein": 14.3}
{"sequence": "CUGUUUUCCGCAGGAUAUGCUCCUCCAUUAUUAGCAGAAGGGCGUUGAACAUGAGGAUCACCCAUGUAUGUAAUUGAUUAUUGC [JR_ExcNG1_Sub071] (Eterna round: R96, puzzle: Exclusion NG 1)", "reading-unit": "nM", "apparent KD of MS2 coat protein": 36.3}
